Attribution: the supplement of paper PMC10567573

B1: CCND1 (parent)
chain: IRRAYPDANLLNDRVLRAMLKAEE

# Variants of: B1
# procedure-details: protein stability index of a GFP-peptide fusion (GPS, HEK-293T) (PSI 1-6); higher = more stable;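 further: lentivirally expressed fusions sorted by FACS into six bins by GFP to DsRed ratio, PSI derived from sequencing read proportions per bin multiplied by bin number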
# measurement-conditions: c terminus: a fixed tail appended

mutant-label: A22R
protein stability index: 2.3
--
mutant-label: L20E
protein stability index: 4.09
--
mutant-label: L20T
protein stability index: 3.12
--
mutant-label: E23S
protein stability index: 2.3
--
mutant-label: V15P
protein stability index: 3.51
--
mutant-label: E24M
protein stability index: 1.87
--
mutant-label: E24D
protein stability index: 2.67
--
mutant-label: A18G
protein stability index: 3.77
--
mutant-label: M19F
protein stability index: 3.26
--
mutant-label: D7H
protein stability index: 2.14
--
mutant-label: L10H
protein stability index: 2.94
--
mutant-label: E24H
protein stability index: 2.04
--
mutant-label: D13H
protein stability index: 2.2
--
mutant-label: I1T
protein stability index: 2.27
--
mutant-label: V15C
protein stability index: 2.61
--
mutant-label: A8T
protein stability index: 2.61
--
mutant-label: E23T
protein stability index: 2.61
--
mutant-label: A8M
protein stability index: 2.85
--
mutant-label: R17T
protein stability index: 3.47
--
mutant-label: K21P
protein stability index: 3.85
--
mutant-label: L10I
protein stability index: 1.22
--
mutant-label: P6M
protein stability index: 2.99
--
mutant-label: K21C
protein stability index: 3.33
--
mutant-label: L20W
protein stability index: 2.32
--
mutant-label: M19P
protein stability index: 3.79
--
mutant-label: R17P
protein stability index: 3.46
--
mutant-label: V15N
protein stability index: 3.25
--
mutant-label: A4T
protein stability index: 2.12
--
mutant-label: R3K
protein stability index: 2.84
--
mutant-label: R14Q
protein stability index: 2.29
--
mutant-label: A4Q
protein stability index: 2.37
--
mutant-label: L20Y
protein stability index: 2.9
--
mutant-label: Y5K
protein stability index: 3.3
--
mutant-label: P6E
protein stability index: 2.14
--
mutant-label: N9S
protein stability index: 2.44
--
mutant-label: V15R
protein stability index: 3.57
--
mutant-label: N12K
protein stability index: 2.15
--
mutant-label: R2C
protein stability index: 2.25
--
mutant-label: A4W
protein stability index: 3.03
--
mutant-label: A18W
protein stability index: 2.3
--
mutant-label: A22I
protein stability index: 2.1
--
mutant-label: D13V
protein stability index: 1.54
--
mutant-label: A8L
protein stability index: 2.04
--
mutant-label: R14D
protein stability index: 1.56
--
mutant-label: R2M
protein stability index: 3.37
--
mutant-label: R14T
protein stability index: 3.07
--
mutant-label: L20H
protein stability index: 2.55
--
mutant-label: R2H
protein stability index: 2.08
--
mutant-label: R3F
protein stability index: 1.87
--
mutant-label: K21G
protein stability index: 2.52
--
mutant-label: K21F
protein stability index: 1.47
--
mutant-label: D13C
protein stability index: 2.72
--
mutant-label: K21A
protein stability index: 2.35
--
mutant-label: L10A
protein stability index: 2.48
--
mutant-label: E24I
protein stability index: 3
--
mutant-label: R3V
protein stability index: 1.54
--
mutant-label: D7A
protein stability index: 1.83
--
mutant-label: L11Q
protein stability index: 3.79
--
mutant-label: Y5E
protein stability index: 2.51
--
mutant-label: Y5N
protein stability index: 2.43
--
mutant-label: A4M
protein stability index: 2.58
--
mutant-label: Y5G
protein stability index: 2.14
--
mutant-label: L11I
protein stability index: 2.43
--
mutant-label: P6T
protein stability index: 1.88
--
mutant-label: E24T
protein stability index: 2.33
--
mutant-label: R17M
protein stability index: 3.21
--
mutant-label: L10Q
protein stability index: 3.38
--
mutant-label: L20A
protein stability index: 3.3
--
mutant-label: I1S
protein stability index: 3.94
--
mutant-label: P6R
protein stability index: 2.35
--
mutant-label: D7K
protein stability index: 2.1
--
mutant-label: I1H
protein stability index: 3.25
--
mutant-label: Y5P
protein stability index: 3.69
--
mutant-label: L16S
protein stability index: 4.52
--
mutant-label: K21W
protein stability index: 1.83
--
mutant-label: L20S
protein stability index: 3.69
--
mutant-label: A18L
protein stability index: 1.31
--
mutant-label: R17S
protein stability index: 2.72
--
mutant-label: V15A
protein stability index: 3.31
--
mutant-label: K21M
protein stability index: 1.76
--
mutant-label: E23Y
protein stability index: 2.45
--
mutant-label: R3N
protein stability index: 2.66
--
mutant-label: R2E
protein stability index: 3.49
--
mutant-label: D13S
protein stability index: 2.37
--
mutant-label: A22E
protein stability index: 3.08
